The measurements presented in this section are drawn from PubChem BioAssay (NCATS).

Assay: qHTS Assay for Lipid Storage Modulators (AID 1519)
Details: Drosophila S3 cells, BODIPY lipid droplet/cell ratio, laser cytometry; measured here: lipid channel max response; cells loaded with oleic acid
Protocol: NIH Molecular Libraries Probe Production Centers Network [MLPCN] NIH Chemical Genomics Center [NCGC] Assay Submitter (PI): Beller, Mathias; Max-Planck-Institut fur Biophysikalische Chemie […] We dispensed 4 uL of cells at 1.25 x 10^6 cells/mL into LoBase Aurora COC 1,536-well plates (black walled, clear bottom) with a bottle-valve solenoid-based dispenser (Aurora) to obtain 5,000 cells/well. […] The ratio of the total intensity in PMT channel 1 over total intensity of channel 3 was also calculated. […]
Inconclusive results are not listed.
Binary call on max response with cut-off -10%: strictly below means rule met, and equality or higher means rule not met.

Worked examples, 5 compounds total:
{"QUERY SMILES": "CSc1nc(N)c2ncn([C@H]3O[C@H](COP(=O)(O)OP(=O)(O)O)[C@@H](O)[C@@H]3O)c2n1", "ASSIGNED CATEGORY": "rule not met"}
{"QUERY SMILES": "N[C@@H](C(=O)O)[C@H](CC(=O)O)c1ccc(Cl)cc1", "ASSIGNED CATEGORY": "rule met"}
{"QUERY SMILES": "O=C(Nc1ccccc1)N[C@H]1C[C@H](C(=O)O)Nc2cc(Cl)cc(Cl)c21", "ASSIGNED CATEGORY": "rule not met"}
{"QUERY SMILES": "C[N+](C)(CCCCCC[N+](C)(C)CCCN1C(=O)c2ccccc2C1=O)CCCN1C(=O)c2ccccc2C1=O", "ASSIGNED CATEGORY": "rule met"}
{"QUERY SMILES": "CC(=O)OCCNC(=O)c1cccnc1", "ASSIGNED CATEGORY": "rule not met"}

Field: next compound
stdin: Hi there! Is max response for CN1CCN(CCc2ccc(Cl)c(Cl)c2)CC1 below -10%, do you know?
stdout: rule met

---

Biological target: Ubiquitin carboxyl-terminal hydrolase 1 (Homo sapiens) (UniProt O94782)
Sequence (O94782 whole entry, looked up): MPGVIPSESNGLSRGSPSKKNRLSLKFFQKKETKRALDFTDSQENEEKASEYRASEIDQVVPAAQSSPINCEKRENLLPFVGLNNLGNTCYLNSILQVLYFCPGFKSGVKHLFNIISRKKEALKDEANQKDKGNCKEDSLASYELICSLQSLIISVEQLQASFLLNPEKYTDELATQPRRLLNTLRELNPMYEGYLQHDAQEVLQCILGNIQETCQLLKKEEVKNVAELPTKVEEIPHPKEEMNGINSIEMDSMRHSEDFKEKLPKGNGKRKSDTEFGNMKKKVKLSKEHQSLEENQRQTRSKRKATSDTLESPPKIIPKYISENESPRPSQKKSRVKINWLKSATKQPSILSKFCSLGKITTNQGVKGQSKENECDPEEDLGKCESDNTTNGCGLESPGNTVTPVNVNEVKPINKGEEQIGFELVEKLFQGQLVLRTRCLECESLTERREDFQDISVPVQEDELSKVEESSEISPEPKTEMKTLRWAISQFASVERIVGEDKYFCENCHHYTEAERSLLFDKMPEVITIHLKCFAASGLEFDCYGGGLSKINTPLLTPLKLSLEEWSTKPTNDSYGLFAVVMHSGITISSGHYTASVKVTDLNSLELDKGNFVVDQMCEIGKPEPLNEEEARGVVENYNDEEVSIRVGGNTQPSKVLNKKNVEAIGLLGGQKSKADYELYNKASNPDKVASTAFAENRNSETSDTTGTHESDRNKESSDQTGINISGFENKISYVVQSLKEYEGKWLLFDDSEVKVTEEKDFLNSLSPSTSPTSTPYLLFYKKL
Assay: Inhibitors of USP1/UAF1: Pilot qHTS (AID 504865); note: nearly all actives have a fitted effect of over 35% in size
Settings: purified USP1/UAF1, Ub-rhodamine cleavage fluorescence; series mostly up to 114 µM
Description: Deubiquitinating enzymes (DUBs) are a class of enzymes that can cleave isopeptide bond formed between the C-terminal carboxylate of ubiquitin and a lysine side-chain amino group on the target protein. Among them, ubiquitin specific proteases (USPs) constitute the largest DUB family. […]
Inconclusive results are not listed. Calls of active or inactive are those of the source. Calls come from the whole dose curve; as a rule, active = well fitted inhibition curve with a large enough effect; inconclusive = small, poorly fitted or top-dose-only effect; inactive = flat fitted curve, though single readings scatter.
The categories you may choose from are true (1) = active, false (0) = inactive

{"MOLECULE": "c1ccc(N2CCN(CCCOc3ccc4c(c3)OCO4)CC2)cc1", "ASSIGNED CATEGORY": "false (0)"}

stdin: What is the recorded call for this molecule in the test? CCS(=O)(=O)N1CCC[C@H]2CN3CCc4cc(OC)ccc4[C@@H]3C[C@@H]21
stdout: false (0)

stdin: What is the recorded call for this molecule in the test? Cc1cc([C@](C)(N)C(=O)O)ccc1P(=O)(O)O
stdout: false (0)

stdin: What is the recorded call for this molecule in the test? O=c1nc2ccccc2c2n1C[C@H](CN1CCN(c3ccccc3)CC1)N2
stdout: false (0)

stdin: What is the recorded call for this molecule in the test? N[C@H](Cc1cnc[nH]1)C(=O)O
stdout: false (0)

stdin: What is the recorded call for this molecule in the test? CCOC(=O)C(CCc1ccccc1)NC1CCc2ccccc2N(CC(=O)O)C1=O (configuration not stated)
stdout: false (0)

stdin: What is the recorded call for this molecule in the test? CC(C)NC[C@H](O)c1ccc2ccccc2c1
stdout: false (0)

stdin: What is the recorded call for this molecule in the test? Cc1cccc(/C=C/c2ccccc2)n1
stdout: false (0)

stdin: What is the recorded call for this molecule in the test? COc1ccc([N+](=O)[O-])c2c1CCN2C(=O)CC[C@H](N)C(=O)O
stdout: false (0)

stdin: What is the recorded call for this molecule in the test? CCCn1c(=O)c2[nH]c(-c3ccccc3)nc2n(CCC)c1=O
stdout: false (0)

stdin: What is the recorded call for this molecule in the test? CC[N+](CC)(CC)CCOc1ccc(/C=C\c2ccccc2)cc1
stdout: false (0)

stdin: What is the recorded call for this molecule in the test? O=C1c2ccc(O)c(O)c2C(=O)c2c(O)ccc(O)c21
stdout: true (1)
